The measurements presented in this section are drawn from patent US6482815B1.

Tested on: MOLT-3
EXPERIMENTAL_DETAILS: Anti-proliferative activity (colony counts), MOLT-3
Type: cell-based, human
CONDITION_DETAILS: MOLT-3, concentration 0.1 (mM as printed)
ENDPOINT: Mean No. of Colonies/10^6 Cells

Some entries whose results are on file:
CSc1nccc(Nc2ccc([As](=O)(O)O)cc2)n1 [WHI-P380] :: 678(624, 732) Colonies/10^6 Cells
O=[As](O)(O)c1ccc(N=Nc2ccc(Nc3ncnc4[nH]cnc34)cc2)cc1 [WHI-P371] :: 1098(1004, 1192) Colonies/10^6 Cells
COc1cc2ncnc(Nc3ccc(N=Nc4ccc([As](=O)(O)O)cc4)cc3)c2cc1OC [WHI-P273] :: 1230(968, 1492) Colonies/10^6 Cells
CSc1nccc(Nc2ccc(N=Nc3ccc([As](=O)(O)O)cc3)cc2)n1 [WHI-P370] :: 992(896, 1088) Colonies/10^6 Cells

Field: next compound
Query: Suppose we examine the compound CSc1nccc(Nc2ccccc2[As](=O)(O)O)n1 [WHI-P381] ; what Mean No. of Colonies/10^6 Cells value has been reported?
Result: 429(202, 656) Colonies/10^6 Cells

###

Test system: NALM-6 cells
EXPERIMENTAL_DETAILS: MTT cytotoxicity over 1-4 days versus arsenic trioxide, NALM-6
CONDITION_DETAILS: Homo sapiens, NALM-6, 48 h, read-out: Cytotoxicity against NALM-6 cells IC50, Day 2
ENDPOINT: IC50

Query: Suppose we examine the compound CSc1nccc(Nc2ccccc2[As](=O)(O)O)n1 ; what IC50 value has been reported?
Result: 850 nM

###

Tested on: NALM-6
EXPERIMENTAL_DETAILS: Anti-proliferative activity (colony counts), NALM-6
Format: cell-based, human
CONDITION_DETAILS: NALM-6, concentration 0.1 (mM as printed)
Source text: The dose-responsive anti-proliferative activity of various organic arsenic acid substituted compounds against leukemic cell lines (NALM-6 and MOLT-3) is shown below in Table 3. FIGS. 3A-3F show dose response curves in ALL1, NALM-6, and MOLT-3 cells.
ENDPOINT: % Inhibition (%)
Give your result in % as a bare value.

CSc1nccc(Nc2ccccc2[As](=O)(O)O)n1 :: 100
COc1cc2ncnc(Nc3ccc(N=Nc4ccc([As](=O)(O)O)cc4)cc3)c2cc1OC :: 13.7
CSc1nccc(Nc2ccc(N=Nc3ccc([As](=O)(O)O)cc3)cc2)n1 :: 30.9
O=[As](O)(O)c1ccc(N=Nc2ccc(Nc3ncnc4[nH]cnc34)cc2)cc1 :: 8.8

Field: next compound
Query: Suppose we examine the compound CSc1nccc(Nc2ccc([As](=O)(O)O)cc2)n1 ; what % Inhibition value has been reported?
Result: 66.9

###

ENDPOINT: melting point

Some entries whose results are on file:
CSc1nccc(Nc2ccc(N=Nc3ccc([As](=O)(O)O)cc3)cc2)n1 :: 240 to 242 °C
O=[As](O)(O)c1ccc(N=Nc2ccc(Nc3ncnc4[nH]cnc34)cc2)cc1 :: > 300 °C
CSc1nccc(Nc2ccc([As](=O)(O)O)cc2)n1 :: > 300 °C

Field: next molecule
Query: Suppose we examine the molecule COc1cc2ncnc(Nc3ccccc3[As](=O)(O)O)c2cc1OC ; what melting point value has been reported?
Result: > 300 °C
